Data provenance is ChEMBL document CHEMBL4411307.

- TEST DETAILS: Selectivity index, ratio of CC50 for human A549 cells to MIC for Candida parapsilosis ATCC 22019
- Type: toxicity
- STUDY CONDITIONS: read-out: Selectivity Index
VALUE TYPE: selectivity ratio
Simply state the number, no unit and no words.

Fc1ccccc1N/N=C/c1ccc(-c2cccc(/C=N/Nc3ccccc3F)c2)cc1 ... 1.1
Fc1ccc(N/N=C/c2ccc(-c3cccc(/C=N/Nc4ccc(F)cc4F)c3)cc2)c(F)c1 ... 0.5
C(=N\Nc1ccccc1)/c1ccc(-c2ccc(/C=N/Nc3ccccc3)cc2)cc1 ... 0.6
C/C(=N\Nc1ccc(F)cc1)c1ccc(-c2ccc(/C(C)=N/Nc3ccc(F)cc3)cc2)cc1 ... 1.1

Now turn to the next compound.
Looking up `Fc1cccc(N/N=C/c2ccc(-c3ccc(/C=N/Nc4cccc(F)c4)cc3)cc2)c1` , I see its selectivity ratio listed as 8
